PROTOCOL_CONDITIONS: in methyl acetate, 303.15 K
MEASURE_NAME: solubility (mole fraction)

INSERT INTO results (substance_smiles, recorded_value) VALUES
  ('CCOc1ccccc1C(N)=O', 0.0142);

* * *

PROTOCOL_CONDITIONS: in isopropanol, 303.15 K
MEASURE_NAME: solubility (mole fraction)

INSERT INTO measurements (substance_smiles, measure_name, recorded_value) VALUES
  ('CCOc1ccccc1C(N)=O', 'solubility (mole fraction)', 0.0122);

* * *

PROTOCOL_CONDITIONS: in n-butanol, 323.15 K
MEASURE_NAME: solubility (mole fraction)

INSERT INTO results (substance_smiles, recorded_value) VALUES
  ('CCOc1ccccc1C(N)=O', 0.0402);

* * *

PROTOCOL_CONDITIONS: in 1,4-dioxane, 298.15 K
MEASURE_NAME: solubility (mole fraction)

INSERT INTO measurements (substance_smiles, recorded_value) VALUES
  ('CCOc1ccccc1C(N)=O', 0.0175);

* * *

PROTOCOL_CONDITIONS: in DMF, 323.15 K
MEASURE_NAME: solubility (mole fraction)

INSERT INTO results (substance_smiles, recorded_value) VALUES
  ('CCOc1ccccc1C(N)=O', 0.133);

* * *

PROTOCOL_CONDITIONS: in n-butyl acetate, 303.15 K
MEASURE_NAME: solubility (mole fraction)

INSERT INTO results (substance_smiles, recorded_value) VALUES
  ('CCOc1ccccc1C(N)=O', 0.0089);

* * *

PROTOCOL_CONDITIONS: in acetone, 288.15 K
MEASURE_NAME: solubility (mole fraction)

INSERT INTO measurements (substance_smiles, measure_name, recorded_value) VALUES
  ('CCOc1ccccc1C(N)=O', 'solubility (mole fraction)', 0.0124);

* * *

PROTOCOL_CONDITIONS: in 2-butanone, 318.15 K
MEASURE_NAME: solubility (mole fraction)

INSERT INTO results (substance_smiles, measure_name, recorded_value) VALUES
  ('CCOc1ccccc1C(N)=O', 'solubility (mole fraction)', 0.0413);

* * *

PROTOCOL_CONDITIONS: in sec-butanol, 308.15 K
MEASURE_NAME: solubility (mole fraction)

INSERT INTO results (substance_smiles, recorded_value) VALUES
  ('CCOc1ccccc1C(N)=O', 0.0198);

* * *

PROTOCOL_CONDITIONS: in 1,4-dioxane, 293.15 K
MEASURE_NAME: solubility (mole fraction)

INSERT INTO measurements (substance_smiles, measure_name, recorded_value) VALUES
  ('CCOc1ccccc1C(N)=O', 'solubility (mole fraction)', 0.0144);

* * *

PROTOCOL_CONDITIONS: in n-propyl acetate, 318.15 K
MEASURE_NAME: solubility (mole fraction)

INSERT INTO assay_data (substance_smiles, recorded_value) VALUES
  ('CCOc1ccccc1C(N)=O', 0.0185);

* * *

PROTOCOL_CONDITIONS: in isopropanol, 318.15 K
MEASURE_NAME: solubility (mole fraction)

INSERT INTO results (substance_smiles, recorded_value) VALUES
  ('CCOc1ccccc1C(N)=O', 0.0265);

* * *

PROTOCOL_CONDITIONS: in n-butanol, 293.15 K
MEASURE_NAME: solubility (mole fraction)

INSERT INTO assay_data (substance_smiles, recorded_value) VALUES
  ('CCOc1ccccc1C(N)=O', 0.00989);

Ref: BigSolDB 2.1
